Tested on: ACHN renal
procedure-summary: NCI tumour cell line growth inhibition, 48 h
Below, each entry is listed alongside its reported TGI.

{"columns": ["compound", "system-under-test", "TGI"],
 "data": [
  ["CC(C)(C)C(=O)c1c(C(F)(F)F)n([O-])c2cc(Cl)c(Cl)cc2[n+]1=O", "ACHN renal", "0.782 µM"],
  ["COc1ccc(C(OCC2OC3(COC(c4ccccc4)(c4ccc(OC)cc4)c4ccc(OC)cc4)C(Oc4nc(=O)ccn43)C2O)(c2ccccc2)c2ccc(OC)cc2)cc1 (centres undefined)", "ACHN renal", "> 100 µM"],
  ["Cc1ccc(N=Nc2c(O)ccc3n[nH]nc23)cc1", "ACHN renal", "69.2 µM"],
  ["CN(C)CC1C(=O)O[C@H]2[C@H]1CC/C(COC(=O)NCc1ccc(Cn3c(=O)sn(CCCI)c3=O)cc1)=C\\CC[C@@]1(C)O[C@@H]21 (some centres undefined)", "ACHN renal", "1.58 µM"],
  ["CC(C)=CCC/C(C)=C/Cc1c(O)c(C)cc2c1[nH]c1cc(O)ccc12", "ACHN renal", "> 25 µM"],
  ["CCC[CH2][Sn]([CH2]CCC)([O]C(=O)c1cc(F)ccc1F)[O]C(=O)c1cc(F)ccc1F", "ACHN renal", "2.7 µM"],
  ["O=C(Nc1ccc([N+](=O)[O-])cc1[N+](=O)[O-])C(=O)C(C(=O)c1ccc(Cl)c(Cl)c1)C1OC(=O)c2ccccc21 (centres undefined)", "ACHN renal", "> 100 µM"],
  ["O=[N+]([O-])c1cccc(-c2cn3c(n2)Cc2ccccc2C3)c1", "ACHN renal", "> 100 µM"],
  ["COc1ccc(/C=C\\c2cc(OC)c(OC)c(OC)c2)cc1OC(=O)CC(N)C(=O)O (centres undefined)", "ACHN renal", "> 100 µM"]
]}
